# System: ALPK1-dependent NFκB reporter gene activation in HEK293 cells stably expressing an NF-kB reporter (G9 cells)
# assay_overview: NFκB gene reporter alkaline phosphatase assay
# Assay type: cell-based
# details: Homo sapiens, HEK293; read-out: NFkB assay IC50
# Description: In embodiments, a compound of Formula I, or a subembodiment described herein, is an inhibitor of ALPK1 as measured, for example, in an in vitro kinase assay, or an assay designed to measure the activation of downstream targets of ALPK1 pathway activation, for example NFkB transcriptional activation and the secretion of proinflammatory cytokines and chemokines, such as IL-8, which is also referred to as CXCL-8. […]
Please go through the items and note down their log10 of IC50.
Transform log10 | Measure IC50 | Unit nM

Take a look at these entries with their results.
INSERT INTO results (molecule, observed_result) VALUES
  ('COc1ccc(C(C)(C)c2csc(NC(=O)NCc3ccc(CN4CCNCC4)c(F)c3)n2)cc1', 3.40),
  ('COc1ccc(C(C)(C)c2csc(NC(=O)NCc3ccc(CO)cc3)n2)cc1', 3.74),
  ('C#C[C@](C)(c1ccc(Cl)cc1)c1csc(NC(=O)NCC2(O)CNC2)n1 (stereo in doubt)', 4.19),
  ('CC(C)(c1ccc(F)cc1)c1csc(NC(=O)NCc2ccc(N3CCNCC3)cc2)n1', 3.32),
  ('CC(C)(c1ccc(Br)cc1)c1csc(NC(=O)NCc2cccc(N3CCNCC3)c2)n1', 3.06);

For every item below, please supply its log10 of IC50.
1. CC(C)(c1ccc(Br)cc1)c1csc(NC(=O)NCc2ccnc(N3CCNCC3)n2)n1
2. Cc1nc(N2CCNCC2)ncc1CNC(=O)Nc1nc(C(C)(C)c2ccc(Br)cc2)cs1
3. [2H]C([2H])(O)CNC(=O)Nc1nc([C@@](C)(C#C)c2ccc(Cl)cc2)cs1 (stereo in doubt)

## Output
1: 3.05; 2: 3.08; 3: 2.48

Origin of values: patent US20240109853A1
